test: in vivo; set-up: species or system SD rats; conditions: SD, rat, po
property_label: bioavailability (%)
Report the figure in % without appending any unit label.

Some solved entries appear below for comparison.
compound="CCCCCCN1C(=O)/C(=C\\c2ccc(O)cc2O)N(C)C1=[Se] [Compound 59]" observed_result=23
compound="Cc1ccc(N2C(=O)/C(=C\\c3ccc(N4CCN(CCO)CC4)cc3)N(C)C2=[Se])cc1 [Compound 21]" observed_result=11

// switching to the query compound
Lookup: Could you share which bioavailability value was measured for Cc1ccc(N2C(=O)/C(=C\c3ccc(N4CCCCC4)cc3)N(C)C2=[Se])cc1 [Compound 15] ?
Found: 11

###

experiment: Single acute toxicity evaluation 2 (2000 mg/kg oral); type: in vivo, ICR mice; conditions: day 4
property_label: change in body weight
// return a plain number; no unit text

Past entries and their recorded results:
structure=CN1C(=[Se])N(CCc2ccccc2)C(=O)C1=Cc1cc(O)cc(O)c1 observed_result=100.9
structure=CN1C(=[Se])N(CCc2ccccc2)C(=O)C1=Cc1ccc(N2CCOCC2)cc1 observed_result=100.0
structure=CCCCCCN1C(=O)C(=Cc2ccc(N3CCOCC3)cc2)N(C)C1=[Se] observed_result=91.9
structure=CCCCCCN1C(=O)C(=Cc2ccc(O)cc2O)N(C)C1=[Se] observed_result=102.8
structure=CN1C(=[Se])N(CCCN2CCOCC2)C(=O)C1=Cc1ccc(Cl)cc1 observed_result=99.8

Proceeding to the next molecule to report its change in body weight.
Lookup: Tell me the measured change in body weight of "Cc1ccc(N2C(=O)C(=Cc3ccc(NCCOCCO)cc3)N(C)C2=[Se])cc1" , please.
Found: 100.0

###

Entries and their change in body weight values follow.
assay: Single acute toxicity evaluation 2 (2000 mg/kg oral); type: in vivo, ICR mice; conditions: day 10
The reply should be a number, written without any unit.

// worked examples, change in body weight included
compound="CCCCCCN1C(=O)C(=Cc2ccc(O)cc2O)N(C)C1=[Se] [Compound 1aja]" observed_result=107.8
compound="CCCCCCN1C(=O)C(=Cc2ccc(N3CCOCC3)cc2)N(C)C1=[Se] [Compound 1ajs]" observed_result=101.6
compound="CN1C(=[Se])N(CCc2ccccc2)C(=O)C1=Cc1cc(O)cc(O)c1 [Compound 1ahe]" observed_result=105.5
compound="Cc1ccc(N2C(=O)C(=Cc3ccc(NCCOCCO)cc3)N(C)C2=[Se])cc1 [Compound 1abv]" observed_result=103.4
compound="CN1C(=[Se])N(CCc2ccccc2)C(=O)C1=Cc1ccc(N2CCOCC2)cc1 [Compound 1ahs]" observed_result=104.5

Lookup: // query change in body weight value for entry CN1C(=[Se])N(CCCN2CCOCC2)C(=O)C1=Cc1ccc(Cl)cc1 [Compound 1aqj]
Found: 105.9

###

Listed below: bioavailability values for each entry.
assay: in vivo; parameters: species or system SD rats; conditions: SD, rat, po

compound="Cc1ccc(N2C(=O)/C(=C\\c3ccc(NCCOCCO)cc3)N(C)C2=[Se])cc1 [Compound 22]" observed_result=55%

Lookup: Using the record for CN1C(=[Se])N(CCc2ccccc2)C(=O)/C1=C\c1cc(O)cc(O)c1 [Compound 44] , report its bioavailability.
Found: 73%

Lookup: Note, next up: CCc1ccc(N2C(=O)/C(=C\c3cc(O)cc(O)c3)N(C)C2=[Se])cc1 [Compound 27]
Found: 31%

Lookup: Next record, please: CN1C(=[Se])N(c2ccccc2)C(=O)/C1=C\c1ccc(O)cc1O [Compound 1]
Found: 13%

###

assay: Single acute toxicity evaluation 2 (2000 mg/kg oral); assay type: in vivo, ICR mice; conditions: day 14
Measured change in body weight of individual entries
Form field (numeric): enter value without unit.

Answered examples (5):
structure=CN1C(=[Se])N(CCc2ccccc2)C(=O)C1=Cc1ccc(N2CCOCC2)cc1 property_label="change in body weight" observed_result=105.0
structure=Cc1ccc(N2C(=O)C(=Cc3ccc(NCCOCCO)cc3)N(C)C2=[Se])cc1 property_label="change in body weight" observed_result=105.0
structure=CCCCCCN1C(=O)C(=Cc2ccc(N3CCOCC3)cc2)N(C)C1=[Se] property_label="change in body weight" observed_result=99.4
structure=CN1C(=[Se])N(CCCN2CCOCC2)C(=O)C1=Cc1ccc(Cl)cc1 property_label="change in body weight" observed_result=106.6
structure=CCCCCCN1C(=O)C(=Cc2ccc(O)cc2O)N(C)C1=[Se] property_label="change in body weight" observed_result=107.6

We next turn to a different compound, shown below.
Lookup: Need change in body weight of "CN1C(=[Se])N(CCc2ccccc2)C(=O)C1=Cc1cc(O)cc(O)c1" , thanks.
Found: 106.0

###

Measured change in body weight values are reported for all entries that follow.
experiment: Single acute toxicity evaluation 2 (2000 mg/kg oral); format: in vivo, ICR mice; conditions: day 2
Hey, just send me the number, nothing else.

compound="CCCCCCN1C(=O)C(=Cc2ccc(O)cc2O)N(C)C1=[Se] [Compound 1aja]" observed_result=95.6

Lookup: Item CCCCCCN1C(=O)C(=Cc2ccc(N3CCOCC3)cc2)N(C)C1=[Se] [Compound 1ajs] has what recorded change in body weight?
Found: 94.3

Lookup: Could you do the same for Cc1ccc(N2C(=O)C(=Cc3ccc(NCCOCCO)cc3)N(C)C2=[Se])cc1 [Compound 1abv] , please?
Found: 99.0

Lookup: Can you handle CN1C(=[Se])N(CCCN2CCOCC2)C(=O)C1=Cc1ccc(Cl)cc1 [Compound 1aqj] next?
Found: 94.6

Lookup: How about CN1C(=[Se])N(CCc2ccccc2)C(=O)C1=Cc1ccc(N2CCOCC2)cc1 [Compound 1ahs] ?
Found: 97.6

Lookup: // same read-out, input: CN1C(=[Se])N(CCc2ccccc2)C(=O)C1=Cc1cc(O)cc(O)c1 [Compound 1ahe]
Found: 98.6

###

assay: Single acute toxicity evaluation 2 (2000 mg/kg oral); assay type: in vivo, ICR mice; conditions: day 8
property_label: change in body weight
Respond numerically, and do not add a unit to the figure.

Examples from the recorded data:
structure=CN1C(=[Se])N(CCc2ccccc2)C(=O)C1=Cc1cc(O)cc(O)c1 observed_result=104.2
structure=CN1C(=[Se])N(CCc2ccccc2)C(=O)C1=Cc1ccc(N2CCOCC2)cc1 observed_result=103.8
structure=CN1C(=[Se])N(CCCN2CCOCC2)C(=O)C1=Cc1ccc(Cl)cc1 observed_result=104.8

Lookup: # input compound: "CCCCCCN1C(=O)C(=Cc2ccc(N3CCOCC3)cc2)N(C)C1=[Se]" ; wanted: its change in body weight
Found: 96.7

Lookup: Same thing, different compound: "CCCCCCN1C(=O)C(=Cc2ccc(O)cc2O)N(C)C1=[Se]"
Found: 105.8

Lookup: And then "Cc1ccc(N2C(=O)C(=Cc3ccc(NCCOCCO)cc3)N(C)C2=[Se])cc1" , what is it?
Found: 102.5
